- Tested on: giant foxtail (Setaria faberi)
- protocol details: Test A pre-/postemergence plant response
- Format: in vivo
- cond: Postemergence, 31 g ai/ha; 0 to 100 scale, 0 no effect, 100 complete control
measured parameter: Plant response rating, Foxtail, Giant
When you answer, write just the number.

Observe how each entry below is paired with its result.
compound structure: CCc1cc(-c2ccc(Br)cc2)nn1-c1c(O)cnn(CC(F)(F)F)c1=O
reported result: 50
--
compound structure: Cc1cc(-c2ccc(Cl)cc2)nn1-c1c(OS(=O)(=O)C2CC2)cnn(C)c1=O
reported result: 0
--
compound structure: Cc1cc(-c2ccc(Cl)cc2)nn1-c1c(OC(=O)CC(C)C)cnn(C)c1=O
reported result: 80
--
compound structure: Cc1cc(-c2ccc(C(F)(F)F)c(F)c2)nn1-c1c(O)c(C(F)(F)F)nn(C)c1=O
reported result: 90

## Input Suppose we examine the compound CCCc1cc(-c2ccc(Cl)cc2)nn1-c1c(O)cnn(C)c1=O ; what Plant response rating, Foxtail, Giant value has been reported?
## Output 80

## Input Entry CC(C)Cc1cc(-c2ccc(Cl)cc2)nn1-c1c(O)cnn(C)c1=O please
## Output 10

###

- Tested on: corn (Zea mays)
- protocol details: Test B pre-/postemergence plant response
- Format: in vivo
- cond: Postemergence, 62 g ai/ha; scale 0 to 100, 0 no effect, 100 complete control
Below, each entry is listed alongside its reported Plant response rating, Corn.
Returns: the value as a bare number; no unit string appended.

compound structure: Cc1cc(-c2ccc(Cl)cc2)nn1-c1c(OC(=O)CC(C)C)cnn(C)c1=O
tested system: corn (Zea mays)
measured parameter: Plant response rating, Corn
reported result: 100

Switching to the query record.
## Input Reported Plant response rating, Corn for CCCc1cc(-c2ccc(C(F)(F)F)cc2)nn1-c1c(O)cnn(C)c1=O : what is it?
## Output 100

###

- System: spring wheat (Triticum aestivum)
- protocol details: Test C pre-/postemergence plant response
- Assay type: in vivo
- cond: Preemergence, 31 g ai/ha; scale 0 to 100 (0 no effect, 100 complete control)
- From the text: […] Treated plants and controls were maintained in a controlled growth environment for 15 to 25 days after which time all species were compared to controls and visually evaluated. […]
measured parameter: Plant response rating, Wheat, Spring
// keep it numeric: no unit symbol after the value

compound: Cc1cc(-c2ccc(Cl)cc2)nn1-c1c(OS(=O)(=O)c2cccc3ccccc23)cnn(C)c1=O [Compound 47]
Plant response rating, Wheat, Spring: 25

compound: Cc1cc(-c2ccc(C(F)(F)F)c(F)c2)nn1-c1c(O)c(C(F)(F)F)nn(C)c1=O [Compound 44]
Plant response rating, Wheat, Spring: 70

compound: CCc1cc(-c2ccc(Cl)cc2)nn1-c1c(O)cnn(C)c1=O [Compound 21]
Plant response rating, Wheat, Spring: 60

## Input Item under review: Cc1cc(-c2ccc(Cl)cc2)nn1-c1c(OC(=O)CC(C)C)cnn(C)c1=O [Compound 37] . Reported Plant response rating, Wheat, Spring?
## Output 90

###

- Tested on: Italian ryegrass (Lolium multiflorum)
- protocol details: Test B pre-/postemergence plant response
- Assay type: in vivo
- cond: Preemergence; 8 g ai/ha; scale 0 to 100
Ryegrass, Italian plant response rating values, listed per item
Lab note: record just the number, no unit beside it.

## Input Notebook entry, Italian ryegrass (Lolium multiflorum) assay: Ryegrass, Italian plant response rating of CCc1cc(-c2ccc(Br)cc2)nn1-c1c(O)c(C)nn(C)c1=O [Compound 74] = ?
## Output 60

## Input And what about the compound Cc1cc(-c2ccc(Cl)cc2)nn1-c1c(OS(=O)(=O)c2ccc(Cl)s2)cnn(C)c1=O [Compound 55] ?
## Output 60

## Input Then Cc1cc(-c2ccc(Cl)cc2)nn1-c1c(OC(=O)c2cccs2)cnn(C)c1=O [Compound 52] ?
## Output 0

###

- Tested on: corn (Zea mays)
- protocol details: Test A pre-/postemergence plant response
- Assay type: in vivo
- cond: Preemergence, 125 g ai/ha; 0 to 100 scale (0 no effect, 100 complete control)
Recorded Plant response rating, Corn by entry
Answer with a number only.

compound structure: COc1nn(C)c(=O)c(-n2nc(-c3ccc(Br)cc3)cc2C)c1O
Plant response rating, Corn: 50

compound structure: Cc1cc(-c2ccc(Cl)cc2)nn1-c1c(OC(=O)c2cccs2)cnn(C)c1=O
Plant response rating, Corn: 70

compound structure: CCCC(=O)Oc1cnn(C)c(=O)c1-n1nc(-c2ccc(Cl)cc2)cc1C
Plant response rating, Corn: 80

compound structure: CCc1cc(-c2ccc(Cl)cc2)nn1-c1c(O)cnn(C)c1=O
Plant response rating, Corn: 90

compound structure: Cc1nn(C)c(=O)c(-n2nc(-c3ccc(Cl)cc3)cc2C)c1O
Plant response rating, Corn: 50

## Input # query: Plant response rating, Corn of entry CCc1cc(-c2ccc(C(F)(F)F)cc2)nn1-c1c(O)c(C)nn(C)c1=O
## Output 70

## Input Now consider CSc1cc(-c2ccc(F)cc2)nn1-c1c(O)cnn(C)c1=O .
## Output 0

## Input Same question, CCc1cc(-c2ccc(Cl)c(Cl)c2)nn1-c1c(OC(=O)OC(C)C)cnn(C)c1=O this time
## Output 30

## Input Quick one: CCc1cc(-c2ccc(C(F)(F)F)cc2)nn1-c1c(O)c(OC)nn(C)c1=O
## Output 80

## Input Field entry: Cc1cc(-c2ccc(Cl)cc2)nn1-c1c(OC(=O)Oc2ccccc2)cnn(C)c1=O
## Output 60

## Input What do we get for Cc1cc(-c2ccc(OC(F)(F)F)cc2)nn1-c1c(O)cnn(C)c1=O ?
## Output 0

###

- System: wheat (Triticum aestivum)
- protocol details: Test A pre-/postemergence plant response
- Assay type: in vivo
- cond: Preemergence, 125 g ai/ha; 0 to 100 scale (0 no effect, 100 complete control)
measured parameter: Plant response rating, Wheat
Give only the figure.

compound: Cc1cc(-c2ccc(Cl)cc2)nn1-c1c(OS(=O)(=O)c2ccccc2)cnn(C)c1=O [Compound 35]
Plant response rating, Wheat: 80

compound: CCCc1cc(-c2ccc(C(F)(F)F)cc2)nn1-c1c(O)cnn(C)c1=O [Compound 72]
Plant response rating, Wheat: 80

compound: CCCc1cc(-c2ccc(Cl)cc2)nn1-c1c(O)cnn(C)c1=O [Compound 76]
Plant response rating, Wheat: 0

## Input Look at this compound and give its reported Plant response rating, Wheat. CCc1cc(-c2ccc(C(F)(F)F)cc2)nn1-c1c(O)c(C)nn(C)c1=O [Compound 16]
## Output 70

## Input Again, but for Cc1cc(-c2ccc(Cl)cc2)nn1-c1c(OC(=O)c2cccs2)cnn(C)c1=O [Compound 52]
## Output 80

## Input Here is the next compound: Cc1cc(-c2ccc(Cl)cc2)nn1-c1c(OC(=O)N(C)C)cnn(C)c1=O [Compound 64]
## Output 0

## Input Input Cc1cc(-c2ccc(Cl)cc2)nn1-c1c(OS(=O)(=O)C(C)C)cnn(C)c1=O [Compound 50]
## Output 50

## Input Can you check CCc1cc(-c2ccc(Br)cc2)nn1-c1c(O)c(C)nn(C)c1=O [Compound 74] next?
## Output 60

## Input Lookup Cc1cc(-c2ccc(Cl)cc2)nn1-c1c(OC(=O)CC(C)C)cnn(C)c1=O [Compound 37]
## Output 90

## Input For Cc1cc(-c2ccc(Cl)cc2)nn1-c1c(OC(=O)Oc2ccccc2)cnn(C)c1=O [Compound 54] then?
## Output 60

## Input Record: CSc1cc(-c2ccc(F)cc2)nn1-c1c(O)cnn(C)c1=O [Compound 23]
## Output 0

## Input Next record, please: CCc1cc(-c2ccc(C(F)(F)F)cc2)nn1-c1c(OC(=O)OC(C)C)cnn(C)c1=O [Compound 12]
## Output 90

## Input And for Cc1cc(-c2ccc(Cl)cc2)nn1-c1c(OS(=O)(=O)c2cccc3ccccc23)cnn(C)c1=O [Compound 47] ?
## Output 40

## Input And CCc1cc(-c2ccc(Cl)cc2)nn1-c1c(O)cnn(C)c1=O [Compound 21] ?
## Output 90

## Input Now give it for Cc1ccc(-c2ccc(Cl)cc2)cc1-c1c(O)cnn(C)c1=O [Compound 46] too.
## Output 50

###

- Tested on: cocklebur (Xanthium strumarium)
- protocol details: Test B pre-/postemergence plant response
- Type: in vivo
- cond: Preemergence; 8 g ai/ha; scale 0 to 100
Property: Cocklebur plant response rating; scope: individual compounds
Lab note: record the figure alone, no unit after it.

compound structure: CCc1cc(-c2ccc(Cl)cc2)nn1-c1c(O)cnn(C)c1=O
Cocklebur plant response rating: 0

compound structure: Cc1cc(-c2ccc(Cl)cc2)nn1-c1c(OS(=O)(=O)c2ccc(Cl)s2)cnn(C)c1=O
Cocklebur plant response rating: 0

compound structure: Cc1cc(-c2ccc(Cl)cc2)nn1-c1c(OS(=O)(=O)c2ccccc2)cnn(C)c1=O
Cocklebur plant response rating: 0

compound structure: Cc1cc(-c2ccc(Cl)cc2)nn1-c1c(OC(=O)Oc2ccccc2)cnn(C)c1=O
Cocklebur plant response rating: 0

compound structure: Cn1ncc(O)c(-n2nc(-c3ccc(Cl)cc3)cc2C2CC2)c1=O
Cocklebur plant response rating: 0

compound structure: Cc1cc(-c2ccc(Cl)cc2)nn1-c1c(OC(=O)c2cccs2)cnn(C)c1=O
Cocklebur plant response rating: 0

Then this compound:
## Input Hi! What's the reported Cocklebur plant response rating for CCCc1cc(-c2ccc(Cl)cc2)nn1-c1c(O)cnn(C)c1=O on cocklebur (Xanthium strumarium)?
## Output 0
